Can you tell me Binding affinity for the items I'm about to list?
- EXPERIMENTAL TARGET: acetylcholine receptor
- MEASUREMENT DESCRIPTION: SPR, receptor immobilized, peptide 10 uM
One number for each entry, in RU.

Some solved entries appear below for comparison.
{"BINDER": "RSVTKK [6mer-2-177]", "OUTPUT UNIT": "RU", "MEASUREMENT": 136}
{"BINDER": "RWLRKR [6mer-2-166]", "OUTPUT UNIT": "RU", "MEASUREMENT": 125}
{"BINDER": "RGYQKR [6mer-2-185]", "OUTPUT UNIT": "RU", "MEASUREMENT": 137}

Batch: Binding affinity for all items listed.
1. KRQSRR [6mer-2-169]
2. RQYYRK [6mer-2-159]
3. KRRRRK [6mer-2-187]
4. KGLQRR [6mer-2-156]
5. KQRRRK [6mer-2-138]

Result ::
123
127
145
127
153

Entry source: patent US20250011363A1
